Measured cell viability by item
- System: K-562
- MEASUREMENT_PROTOCOL: cell viability (% survival relative to DMSO control, bortezomib = 0%); higher = less cytotoxic
- SETUP_CONDITIONS: 100 nM; 72 h
MEASUREMENT_LABEL: cell viability (%)

1. C=CC(=O)c1ccc(O)cc1	101
2. CO[C@H]1C[C@@H]2CC[C@@H](C)[C@@](O)(O2)C(=O)C(=O)N2CCCC[C@H]2C(=O)O[C@H]([C@H](C)C[C@@H]2CC[C@@H](OCCO)[C@H](OC)C2)CC(=O)[C@H](C)/C=C(\C)[C@@H](O)[C@@H](OC)C(=O)[C@H](C)C[C@H](C)/C=C/C=C/C=C/1C	48.8
3. O=c1cc(-c2ccccc2)oc2c1ccc1ccccc12	109
4. CCCCCOC(=O)Nc1nc(=O)n([C@@H]2O[C@H](C)[C@@H](O)[C@H]2O)cc1F	82.9
5. Cc1nc(-c2ccccc2)sc1C(=O)Nc1ccc(S(N)(=O)=O)cc1	105
6. CC/C=C\C[C@H]1C(=O)CC[C@@H]1CC(=O)OC [Methyl jasmonate]	104
7. CCN(CC)C(=S)SSC(=S)N(CC)CC	89.8
8. CCCCCN(C)CCC(O)(P(=O)(O)O)P(=O)(O)O [Ibandronate]	81.9
9. CC[C@H](C)[C@H](N)C(=O)N1CCSC1	96.6

====

- System: KCL-22
- MEASUREMENT_PROTOCOL: cell viability (% survival relative to DMSO control, bortezomib = 0%); higher = less cytotoxic
- SETUP_CONDITIONS: 1 nM; 72 h
In this section, each of the compounds is paired with its reported cell viability.
MEASUREMENT_LABEL: cell viability (%)

1. C[C@H]1c2cccc(O)c2C(=O)C2C(=O)[C@]3(O)C(=O)C(C(N)=O)C(=O)[C@@H](N(C)C)[C@@H]3[C@@H](O)[C@@H]21 (stereo partly drawn) [Doxycycline]	130
2. Cn1cc(-c2ccncc2)c(-c2ccc(OCc3ccc4ccccc4n3)cc2)n1	116
3. CCN(CC)C(=S)SSC(=S)N(CC)CC [Disulfiram]	72.4
4. O=C(NCCN1CCC(n2c(O)nc3ccccc32)CC1)c1cc2cc(F)ccc2[nH]1 [FIPI]	100
5. Cc1c2c(=O)n(-c3ccccc3Cl)[nH]c2cc(=O)n1Cc1ccccn1	60.5
6. N[C@@H](CC(=O)N1CCn2c(nnc2C(F)(F)F)C1)Cc1cc(F)c(F)cc1F [Sitagliptin]	94
7. CO[C@H]1C[C@@H]2CC[C@@H](C)[C@@](O)(O2)C(=O)C(=O)N2CCCC[C@H]2C(=O)O[C@H]([C@H](C)C[C@@H]2CC[C@@H](OC(=O)C(C)(CO)CO)[C@H](OC)C2)CC(=O)[C@H](C)/C=C(\C)[C@@H](O)[C@@H](OC)C(=O)[C@H](C)C[C@H](C)/C=C/C=C/C=C/1C [Temsirolimus]	95.8
8. OC[C@H]1NC[C@H](O)[C@@H](O)[C@@H]1O [Duvoglustat]	90.5
9. O=c1cc(-c2ccccc2)oc2c1ccc1ccccc12 [Alpha-Naphtoflavone]	107
10. Cc1nc(-c2ccccc2)sc1C(=O)Nc1ccc(S(N)(=O)=O)cc1	98.7
11. COC(=O)c1cc2c(C(F)(F)F)cc(-c3ccccc3)cc2n1O [NHI-2]	91.9
12. CCc1c(C(=O)C(N)=O)c2c(OCC(=O)O)cccc2n1Cc1ccccc1 [Varespladib]	91.2
13. O=c1cc(N2CCOCC2)oc2c(-c3ccccc3)cccc12	123

====

- Test system: THP-1
- SETUP_CONDITIONS: 72 h
MEASUREMENT_LABEL: IC50 (cell viability)

1. Cc1[nH]nc(C(F)(F)F)c1Cc1sc2c(c1C(=O)N1C[C@](C)(O)CO1)c(=O)n(C)c(=O)n2C(C)C	> 10 µM
2. CCc1oc2ccccc2c1C(=O)c1cc(Br)c(O)c(Br)c1	> 10 µM
3. CCC(C)(C)C(=O)O[C@H]1C[C@@H](C)C=C2C=C[C@H](C)[C@H](CC[C@@H]3C[C@@H](O)CC(=O)O3)[C@H]21	> 10 µM
4. CCN(CC)C(=S)SSC(=S)N(CC)CC	0.0708 µM

====

Attribute: cell viability
- Test system: HL-60
- MEASUREMENT_PROTOCOL: cell viability (% survival relative to DMSO control); higher = less cytotoxic
- SETUP_CONDITIONS: 0.1 µM; 72 h; co-treatment: GSK2194069 100 nM
MEASUREMENT_LABEL: cell viability (%)

1) CCCc1nc(C)c2c(=O)nc(-c3cc(S(=O)(=O)N4CCN(CC)CC4)ccc3OCC)[nH]n12	88.3
2) C[C@]12C=CC(=O)C=C1CC[C@@H]1[C@@H]2[C@@H](O)C[C@@]2(C)[C@H]1CC[C@]2(O)C(=O)CO	98.4
3) N#Cc1ccnc(N2C(=O)CC[C@H]2C(=O)N(c2cncc(F)c2)[C@H](C(=O)NC2CC(F)(F)C2)c2ccccc2Cl)c1	99.8
4) COC(=O)c1cc2c(C(F)(F)F)cc(-c3ccccc3)cc2n1O	100
5) O=c1c(-c2ccc(O)cc2)coc2cc(O[C@@H]3O[C@H](CO)[C@@H](O)[C@H](O)[C@H]3O)ccc12	102
6) CCc1oc2ccccc2c1C(=O)c1cc(Br)c(O)c(Br)c1	105
7) CC(C)(C)c1ccc(S(=O)(=O)NCc2ccc(C(=O)Nc3cccnc3)cc2)cc1	99.7

====

- System: HEL
- MEASUREMENT_PROTOCOL: cell viability (% survival relative to DMSO control, bortezomib = 0%); higher = less cytotoxic
- SETUP_CONDITIONS: 100 nM; 72 h
Where a name gives a salt, the structure may show the parent alone.
MEASUREMENT_LABEL: cell viability (%)

1. C=CC(=O)c1ccc(O)cc1 [4-Acryloylphenol]	94.7
2. CCN(CC)C(=S)SSC(=S)N(CC)CC [Disulfiram]	96.6
3. CCc1c(C(=O)C(N)=O)c2c(OCC(=O)O)cccc2n1Cc1ccccc1 [Varespladib]	99.2
4. N#Cc1ccc(N(Cc2ccc(Br)cc2)n2cnnc2)cc1 [YM511]	97.7
5. CCN(CCO)CCCC(C)Nc1ccnc2cc(Cl)ccc12 (configuration not stated) [Hydroxychloroquine sulfate]	99
6. N#C/C(=C\c1ccc(O)cc1)C(=O)O [alpha-cyano-4-hydroxycinnamic acid]	118
7. C=CCN(C)CCCCCCOc1ccc(C(=O)c2ccc(Br)cc2)c(F)c1.O=C(O)/C=C/C(=O)O [Ro 48-8071 fumarate]	102

====

Listed below: cell viability values for each entry.
- Tested on: HL-60
- MEASUREMENT_PROTOCOL: cell viability (% survival relative to DMSO control); higher = less cytotoxic
- SETUP_CONDITIONS: 1 µM; 72 h; co-treatment: DMSO vehicle
Where a name gives a salt, the structure may show the parent alone.
MEASUREMENT_LABEL: cell viability (%)

1. CN(Cc1cnc2nc(N)nc(N)c2n1)c1ccc(C(=O)N[C@@H](CCC(=O)O)C(=O)O)cc1 [Methotrexate]	32.7
2. O=c1cc(N2CCOCC2)oc2c(-c3ccccc3)cccc12	91.6
3. Cc1cc(C(=O)NNCc2ccccc2)no1	99.7
4. CCN(CCO)CCCC(C)Nc1ccnc2cc(Cl)ccc12 (stereo not drawn) [Hydroxychloroquine sulfate]	98.9
5. N#C/C(=C\c1ccc(O)cc1)C(=O)O [alpha-cyano-4-hydroxycinnamic acid]	99.8
6. CCCc1nc(C)c2c(=O)nc(-c3cc(S(=O)(=O)N4CCN(CC)CC4)ccc3OCC)[nH]n12	98.5
7. CC(C)CC(=O)N[C@H](C(=O)N[C@H](C(=O)N[C@@H](CC(C)C)[C@@H](O)CC(=O)N[C@@H](C)C(=O)N[C@@H](CC(C)C)[C@@H](O)CC(=O)O)C(C)C)C(C)C	98.4
8. N#Cc1ccc(N(Cc2ccc(Br)cc2)n2cnnc2)cc1	101

====

- Test system: SHI-1
- MEASUREMENT_PROTOCOL: cell viability (% survival relative to DMSO control, bortezomib = 0%); higher = less cytotoxic
- SETUP_CONDITIONS: 10 nM; 72 h
Parameter cell viability: see the listing below.
MEASUREMENT_LABEL: cell viability (%)

1) O=C1C(SCCO)=C(SCCO)C(=O)c2ccccc21	103
2) Cc1c2c(=O)n(-c3ccccc3Cl)[nH]c2cc(=O)n1Cc1ccccn1	103
3) CCCCCCCC/C=C\CCCCCCCC(=O)Nc1ccccc1 [Octadec-9-Enoic Acid Phenylamide]	94.4
4) N[C@@H](CC(=O)N1CCn2c(nnc2C(F)(F)F)C1)Cc1cc(F)c(F)cc1F	104
5) CN(Cc1cnc2nc(N)nc(N)c2n1)c1ccc(C(=O)N[C@@H](CCC(=O)O)C(=O)O)cc1 [Methotrexate]	90.7
6) CCn1c(=Cc2cccc[n+]2CC)sc(=C2Sc3ccccc3N2C)c1=O	98.7
7) CC(C)CC(=O)N[C@H](C(=O)N[C@H](C(=O)N[C@@H](CC(C)C)[C@@H](O)CC(=O)N[C@@H](C)C(=O)N[C@@H](CC(C)C)[C@@H](O)CC(=O)O)C(C)C)C(C)C	87.5
8) O=c1cc(-c2ccccc2)oc2c1ccc1ccccc12	99.2
9) O=C(Nc1ccccc1)c1cc([N+](=O)[O-])ccc1Cl	104
10) N#Cc1ccc(N(Cc2ccc(Br)cc2)n2cnnc2)cc1	103
11) CN(CCCOc1ccc(Cc2ccccc2)cc1)CCC(=O)O	102
12) Cc1ccc(-c2cc(C(F)(F)F)nn2-c2ccc(S(N)(=O)=O)cc2)cc1	104
13) CC(C)(C)c1ccc(S(=O)(=O)NCc2ccc(C(=O)Nc3cccnc3)cc2)cc1	118
14) CC(=O)Nc1nc(C)c(-c2ccc(Cl)c(S(=O)(=O)NCCO)c2)s1	94.6
15) O=C(/C=C/c1ccc(O)c(O)c1)OCCc1ccccc1	99.5

The reported measurements were obtained from the supplement of paper PMC8671470.
